Below, each of the compounds is paired with its reported Vd value.
# PROCEDURE TEXT: Volume of distribution at steady state in iv dosed human
# MEASUREMENT SETUP: in vivo, read-out: Vdss
Value expressed in L; do not type the unit.

# SMILES REPRESENTATION, Vd [L]
records = [
    ("C=CC(=O)Nc1cc(Nc2nccc(-c3cn(C)c4ccccc34)n2)c(OC)cc1N(C)CCN(C)C", 918),
]

QUERY: Item `CCCCCNC(=N)N/N=C/c1c[nH]c2ccc(OC)cc12` has what recorded Vd?
RESULT: 368

QUERY: Item `Cc1[nH]cnc1CN1CCc2c(c3ccccc3n2C)C1=O` has what recorded Vd?
RESULT: 65

# credit: ChEMBL document CHEMBL5344475
